The reported measurements were obtained from ChEMBL document CHEMBL4184304.

Biological target: Cytochrome P450 2C19 (Homo sapiens, UniProt P33261)
Sequence (P33261 whole entry): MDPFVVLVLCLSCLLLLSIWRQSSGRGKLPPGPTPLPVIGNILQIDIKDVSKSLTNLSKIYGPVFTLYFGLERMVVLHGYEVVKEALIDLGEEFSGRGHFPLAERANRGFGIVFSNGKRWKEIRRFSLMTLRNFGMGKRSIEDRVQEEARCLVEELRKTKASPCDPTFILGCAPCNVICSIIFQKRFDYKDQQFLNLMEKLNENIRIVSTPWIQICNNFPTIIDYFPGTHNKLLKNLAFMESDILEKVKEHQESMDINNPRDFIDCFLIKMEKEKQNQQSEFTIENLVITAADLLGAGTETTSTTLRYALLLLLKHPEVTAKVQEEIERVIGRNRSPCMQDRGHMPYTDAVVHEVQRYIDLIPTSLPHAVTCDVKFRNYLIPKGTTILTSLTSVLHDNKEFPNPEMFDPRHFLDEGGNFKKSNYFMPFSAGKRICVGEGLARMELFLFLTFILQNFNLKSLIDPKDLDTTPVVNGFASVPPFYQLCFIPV

- molecular.string: "CC(C)OC(=O)N1CCC(CCCCCOc2ccc(C(=O)N(C)C)cc2)CC1"
  IC50: "< 10 µM"

* * *

Target: UniProt Q8TDV5
Sequence (Q8TDV5 whole entry): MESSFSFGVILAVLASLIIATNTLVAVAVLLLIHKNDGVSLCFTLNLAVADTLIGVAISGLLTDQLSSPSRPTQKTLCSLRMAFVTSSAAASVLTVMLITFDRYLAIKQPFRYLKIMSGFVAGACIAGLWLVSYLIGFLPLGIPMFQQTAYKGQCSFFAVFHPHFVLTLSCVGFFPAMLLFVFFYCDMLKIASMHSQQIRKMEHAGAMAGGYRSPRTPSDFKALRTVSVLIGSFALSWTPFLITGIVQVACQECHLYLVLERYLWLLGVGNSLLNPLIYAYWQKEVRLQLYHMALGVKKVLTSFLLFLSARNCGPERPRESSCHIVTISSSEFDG
Assay: Agonist activity at human GPR119 expressed in HEK293 cells assessed as increase in intracellular cAMP level after 30 mins
The molecules listed here are annotated with their EC50.
measured.parameter: EC50 (µM)

- molecular.string: "CN(C)C(=O)c1ccc(OCCCCC[C@H]2CC[C@@]3(CCCCO3)CC2)cc1"
  unit.text: "µM"
  observed.value: 0.021
- molecular.string: "CN(C)C(=O)c1ccc(OCCCCCC2CCC3(CC2)OCCCO3)cc1"
  unit.text: "µM"
  observed.value: 0.029
- molecular.string: "CN(C)C(=O)c1ccc(OCCCCCC2CCN(C(=O)OC(C)(C)C)CC2)cc1"
  unit.text: "µM"
  observed.value: 0.005
- molecular.string: "CN(C)C(=O)c1ccc(OCCCCC[C@H]2CC[C@]3(CC2)COC(C)(C)C3)cc1"
  unit.text: "µM"
  observed.value: 0.004
- molecular.string: "CN(C)C(=O)c1ccc(OCCCCC[C@H]2CC[C@]3(CCCCO3)CC2)cc1"
  unit.text: "µM"
  observed.value: 0.036
- molecular.string: "CC(C)(C)OC(=O)N1CCC(CCCCCOc2ccc(S(C)(=O)=O)cc2)CC1"
  unit.text: "µM"
  observed.value: 0.014
- molecular.string: "CC(C)(C)OC(=O)N1CCC(CCCCOc2ccc(S(C)(=O)=O)cc2)CC1"
  unit.text: "µM"
  observed.value: 0.209
- molecular.string: "CN(C)C(=O)c1ccc(OCCCCC[C@H]2CC[C@]3(CCCO3)CC2)cc1"
  unit.text: "µM"
  observed.value: 0.095
- molecular.string: "CC(C)(C)OC(=O)N1CCC(CCCCCCOc2ccc(S(C)(=O)=O)cc2)CC1"
  unit.text: "µM"
  observed.value: 0.078
- molecular.string: "CN(C)C(=O)c1ccc(OCCCCC[C@H]2CC[C@@]3(CCCO3)CC2)cc1"
  unit.text: "µM"
  observed.value: 0.132

* * *

Molecular target: Glucose-dependent insulinotropic receptor (Homo sapiens, UniProt Q8TDV5)
Assay: Agonist activity at human GPR119 expressed in HEK293 cells assessed as increase in intracellular cAMP level after 30 mins
pEC50: −log10 of the molar value.

- molecular.string: "CC(C)(C)OC(=O)N1CCC(CCCOc2ccc(S(C)(=O)=O)cc2)CC1"
  target.or.system: "Glucose-dependent insulinotropic receptor (Homo sapiens, UniProt Q8TDV5)"
  pEC50: 6.45
- molecular.string: "CN(C)C(=O)c1ccc(OCCCCC[C@H]2CC[C@@]3(CC2)CC(C)(C)CO3)cc1"
  target.or.system: "Glucose-dependent insulinotropic receptor (Homo sapiens, UniProt Q8TDV5)"
  pEC50: 8.40
- molecular.string: "CN(C)C(=O)c1ccc(OCCCCC[C@H]2CC[C@]3(CCC(C)(C)O3)CC2)cc1"
  target.or.system: "Glucose-dependent insulinotropic receptor (Homo sapiens, UniProt Q8TDV5)"
  pEC50: 6.29
- molecular.string: "CN(C)C(=O)c1ccc(OCCCCCC2CCC3(CCCCC3)CC2)cc1"
  target.or.system: "Glucose-dependent insulinotropic receptor (Homo sapiens, UniProt Q8TDV5)"
  pEC50: 7.57
- molecular.string: "CN(C)C(=O)c1ccc(OCCCCCC2CCC3(CC2)OCCO3)cc1"
  target.or.system: "Glucose-dependent insulinotropic receptor (Homo sapiens, UniProt Q8TDV5)"
  pEC50: 7.06
